assay: self-splicing fitness, log relative to wild type (ln ratio); higher = more splicing; Tetrahymena group I intron in knt gene, E. coli kanamycin selection, DiMSum; sequences stand for … in CUCUCU…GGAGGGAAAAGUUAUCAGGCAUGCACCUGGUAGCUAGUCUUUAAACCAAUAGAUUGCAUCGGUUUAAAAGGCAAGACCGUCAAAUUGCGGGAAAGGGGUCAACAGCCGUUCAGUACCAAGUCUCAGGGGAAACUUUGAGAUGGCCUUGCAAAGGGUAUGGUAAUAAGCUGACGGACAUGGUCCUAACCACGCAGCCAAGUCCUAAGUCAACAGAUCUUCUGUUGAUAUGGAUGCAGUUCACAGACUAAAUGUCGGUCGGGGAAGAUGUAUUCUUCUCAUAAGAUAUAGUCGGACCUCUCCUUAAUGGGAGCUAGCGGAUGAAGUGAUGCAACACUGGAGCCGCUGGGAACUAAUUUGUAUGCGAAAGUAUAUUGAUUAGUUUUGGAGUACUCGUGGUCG; details: 30 °C;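 also: selection with 25 µg/mL kanamycin versus none on LB agar overnight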
Use class 1 when the recorded self-splicing fitness (ln) is no lower than -3; use class 0 when it is lower.

Solved cases below.
CCGGAGCAAUAUUACGAACA: class 1
CACCAGCAAUAUUACGGGCA: class 1
AGGCAGCAAUAUUACGAUAA: class 1
AACCAGCAAUAUUACGCCCC: class 1
CCAAAGCAAUAUUACGUCCC: class 0

Is the recorded value of self-splicing fitness (ln) equal to or greater than -3 for this sequence? `CGGCAGCAAUAUUACGUGAG` class 1

Is the recorded value of self-splicing fitness (ln) equal to or greater than -3 for this sequence? `AUUAAGCAAUAUUACGUAGC` class 0

Is the recorded value of self-splicing fitness (ln) equal to or greater than -3 for this sequence? `GGGUAGCAAUAUUACGAUGC` class 1

Is the recorded value of self-splicing fitness (ln) equal to or greater than -3 for this sequence? `GUUAAGCAAUAUUACGAAGG` class 1

Is the recorded value of self-splicing fitness (ln) equal to or greater than -3 for this sequence? `GUACAGCAAUAUUACGCCAU` class 0

* * *

assay: self-splicing fitness, log relative to wild type (ln ratio); higher = more splicing; Tetrahymena group I intron in knt gene, E. coli kanamycin selection, DiMSum; sequences stand for … in CUCUCU…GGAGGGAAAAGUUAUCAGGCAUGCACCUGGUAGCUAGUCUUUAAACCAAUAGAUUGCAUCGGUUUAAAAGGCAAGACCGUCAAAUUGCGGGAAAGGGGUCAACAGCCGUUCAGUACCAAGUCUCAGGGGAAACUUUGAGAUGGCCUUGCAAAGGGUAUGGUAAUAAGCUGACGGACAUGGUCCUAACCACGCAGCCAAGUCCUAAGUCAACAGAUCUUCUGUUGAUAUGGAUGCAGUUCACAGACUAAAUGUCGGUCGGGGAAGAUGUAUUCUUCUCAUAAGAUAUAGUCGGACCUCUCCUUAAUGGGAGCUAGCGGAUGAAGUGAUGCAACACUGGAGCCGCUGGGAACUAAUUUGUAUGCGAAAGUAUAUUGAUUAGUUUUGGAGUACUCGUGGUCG; conditions: 30 °C
Consider the following sequences; for each one, report its self-splicing fitness (ln).

Known results for sequences:
AGAUAGCAAUAUUACGCAGU: -2.55
CAAGAGCAAUAUUACGCCUG: -1.47
GUCCAGCAAUAUUACGCACU: -1.58

// switching to the query sequence
Look up and report measured self-splicing fitness (ln) for this entry: `AAAUAGCAAUAUUACGCCGA` -2.41

* * *

experiment: self-splicing fitness, log relative to wild type (ln ratio); higher = more splicing; Tetrahymena group I intron in knt gene, E. coli kanamycin selection, DiMSum; sequences stand for … in CUCUCU…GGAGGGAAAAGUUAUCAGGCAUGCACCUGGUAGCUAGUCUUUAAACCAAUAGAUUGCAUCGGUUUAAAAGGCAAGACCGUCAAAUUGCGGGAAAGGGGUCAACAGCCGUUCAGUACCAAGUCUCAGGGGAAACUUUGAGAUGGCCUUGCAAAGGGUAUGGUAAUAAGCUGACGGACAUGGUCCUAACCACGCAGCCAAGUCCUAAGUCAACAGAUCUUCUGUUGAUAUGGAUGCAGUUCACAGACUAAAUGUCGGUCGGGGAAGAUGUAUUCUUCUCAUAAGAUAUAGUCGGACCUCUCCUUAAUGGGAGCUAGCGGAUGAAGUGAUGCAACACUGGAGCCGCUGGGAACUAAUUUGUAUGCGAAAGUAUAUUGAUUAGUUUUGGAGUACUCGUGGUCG; conditions: 30 °C
Consider the following sequences; for each one, report its self-splicing fitness (ln).
Numbers only.

Known results for sequences:
GCGUAGCAAUAUUACGUAAC: -3.58
AUCGAGCAAUAUUACGGAAC: -2.61
CUUAAGCAAUAUUACGUGAU: -2.63
AGAAAGCAAUAUUACGCUCG: 0.431
GUCAAGCAAUAUUACGGGCU: -4.5

Give self-splicing fitness (ln) for each listed item.
1. UGCAAGCAAUAUUACGCGUC
2. UAGGAGCAAUAUUACGGAUU

1: -1.63; 2: -3.92

* * *

assay: self-splicing fitness, log relative to wild type (ln ratio); higher = more splicing; Tetrahymena group I intron in knt gene, E. coli kanamycin selection, DiMSum; sequences stand for … in CUCUCU…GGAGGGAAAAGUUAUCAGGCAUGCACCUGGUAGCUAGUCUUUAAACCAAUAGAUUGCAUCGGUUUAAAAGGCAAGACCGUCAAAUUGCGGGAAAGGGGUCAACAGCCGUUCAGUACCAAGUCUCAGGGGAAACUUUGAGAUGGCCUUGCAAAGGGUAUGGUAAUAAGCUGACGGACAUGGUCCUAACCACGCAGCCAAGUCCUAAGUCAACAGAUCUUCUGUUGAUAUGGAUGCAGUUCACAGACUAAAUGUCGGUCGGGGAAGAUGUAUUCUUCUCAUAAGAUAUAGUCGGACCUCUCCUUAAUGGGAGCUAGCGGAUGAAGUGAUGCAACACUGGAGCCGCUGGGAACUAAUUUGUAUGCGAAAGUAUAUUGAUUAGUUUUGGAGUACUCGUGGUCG; details: 30 °C
Use Criterion met when the recorded self-splicing fitness (ln) is no lower than -3; use Criterion not met when it is lower.

Solved cases below.
CAGCAGCAAUAUUACGGCAU: Criterion met
ACAAAGCAAUAUUACGAUCA: Criterion met
AAUAAGCAAUAUUACGAGAA: Criterion not met

Is the recorded value of self-splicing fitness (ln) equal to or greater than -3 for this sequence? `CUCGAGCAAUAUUACGAGUA` Criterion met

* * *

Consider the following sequences; for each one, report its self-splicing fitness (ln).
assay: self-splicing fitness, log relative to wild type (ln ratio); higher = more splicing; Tetrahymena group I intron in knt gene, E. coli kanamycin selection, DiMSum; sequences stand for … in CUCUCU…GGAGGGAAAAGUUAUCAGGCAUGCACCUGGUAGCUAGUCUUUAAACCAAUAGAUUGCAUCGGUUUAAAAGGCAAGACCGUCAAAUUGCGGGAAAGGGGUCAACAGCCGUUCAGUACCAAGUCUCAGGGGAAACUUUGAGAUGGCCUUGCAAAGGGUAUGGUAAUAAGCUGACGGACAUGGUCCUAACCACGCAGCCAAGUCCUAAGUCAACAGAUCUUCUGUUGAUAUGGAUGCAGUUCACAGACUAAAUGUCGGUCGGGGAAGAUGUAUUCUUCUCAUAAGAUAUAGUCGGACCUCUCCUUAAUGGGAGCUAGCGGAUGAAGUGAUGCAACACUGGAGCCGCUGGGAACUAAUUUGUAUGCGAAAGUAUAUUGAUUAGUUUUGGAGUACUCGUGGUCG; details: 37 °C
Answers are plain numbers.

Known results for sequences:
CCAAAGCAAUAUUACGCGAA: -2.5
UGGUAGCAAUAUUACGCUUG: -0.402
CGGCAGCAAUAUUACGAAAA: -2.21

Give self-splicing fitness (ln) for each listed item.
1. GCAGAGCAAUAUUACGGAUC
2. UAAUAGCAAUAUUACGGUGU
3. GUAUAGCAAUAUUACGACUC
4. CAAUAGCAAUAUUACGGUUA
5. AAGGAGCAAUAUUACGAUAC
6. AAACAGCAAUAUUACGUGGC
7. CCUUAGCAAUAUUACGGGCA
8. GUGCAGCAAUAUUACGUGCA

[-1.6, -2.93, 0.0743, -1.24, -3.25, -2.35, -3.36, -2.41]

* * *

Consider the following sequences; for each one, report its self-splicing fitness (ln).
experiment: self-splicing fitness, log relative to wild type (ln ratio); higher = more splicing; Tetrahymena group I intron in knt gene, E. coli kanamycin selection, DiMSum; sequences stand for … in CUCUCU…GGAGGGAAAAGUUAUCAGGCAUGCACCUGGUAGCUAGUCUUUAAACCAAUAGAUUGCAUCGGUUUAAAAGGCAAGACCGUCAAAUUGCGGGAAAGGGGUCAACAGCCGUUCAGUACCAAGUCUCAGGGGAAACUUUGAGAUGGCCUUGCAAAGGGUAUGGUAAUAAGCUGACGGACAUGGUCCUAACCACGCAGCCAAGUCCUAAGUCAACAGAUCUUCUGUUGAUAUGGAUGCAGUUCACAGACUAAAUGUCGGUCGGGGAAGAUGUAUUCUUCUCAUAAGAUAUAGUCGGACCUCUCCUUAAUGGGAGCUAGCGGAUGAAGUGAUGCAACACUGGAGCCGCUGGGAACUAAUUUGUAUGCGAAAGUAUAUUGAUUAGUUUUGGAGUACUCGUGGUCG; conditions: 30 °C
Answers are plain numbers.

AGGUAGCAAUAUUACGGCGG: -1.95

Give self-splicing fitness (ln) for each listed item.
1. CGUUAGCAAUAUUACGUCCA
2. CUAGAGCAAUAUUACGUCCG
3. UAUUAGCAAUAUUACGAACC
4. UGCGAGCAAUAUUACGUCUU
5. ACCUAGCAAUAUUACGUGAG

1: -2.04; 2: -0.472; 3: -0.688; 4: -2.61; 5: -0.357

Give self-splicing fitness (ln) for each listed item.
1. AGCUAGCAAUAUUACGUUUU
2. CUGUAGCAAUAUUACGGAUG

1. -2.36
2. -3.23
